MEASURED TARGET: recombinant human 17β-HSD1 (Homo sapiens)
Construct: made in house; host or cells: Sf9 insect cells (baculovirus, Bac to Bac Expression System)
Sequence (P14061 1-328): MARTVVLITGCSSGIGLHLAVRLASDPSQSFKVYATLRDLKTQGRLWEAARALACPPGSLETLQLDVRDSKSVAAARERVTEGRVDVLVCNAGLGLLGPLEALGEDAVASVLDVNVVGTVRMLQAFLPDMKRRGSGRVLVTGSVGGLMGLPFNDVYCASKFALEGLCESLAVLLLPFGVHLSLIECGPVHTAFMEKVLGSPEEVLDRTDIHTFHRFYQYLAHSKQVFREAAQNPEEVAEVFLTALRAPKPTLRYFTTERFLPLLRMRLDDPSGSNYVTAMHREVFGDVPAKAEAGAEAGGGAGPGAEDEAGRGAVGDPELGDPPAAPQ
PROTOCOL DETAILS: Recombinant 17β-HSD1 assay (HPLC, 3H-estrone conversion)
Type: biochemical
MEASUREMENT PARAMETERS: 100 nM compound; 30 nM estrone, 1 mM NADPH, 30 min RT; read-out: Inhibition of rec. 17β-HSD1
Method: 17β-HSD1 or 17β-HSD2 purification: Recombinant 17β-HSD1 and 17β-HSD2 baculoviruses were generated by the “Bac to Bac Expression System” (Invitrogen). Recombinant 17β-HSD1 or 17β-HSD2 bacmids were transfected to Sf9 insect cells using “Cellfectin Reagent” (Invitrogen). 60 h later cells were harvested; the fractions including 17β-HSD1 or 17β-HSD2 were isolated as described by Puranen et al. (1994). […] [formula] Percent inhibition was calculated as follows: % inhibition=100−% conversion
QUANTITY KIND: inhibition at 0.1 µM (%)
The reply should contain only the number, in %.

> print(dat)
                               smiles.entry  assay.result
1  C[C@]12CC[C@@H]3c4ccc(B(O)O)cc4CC[C@H]3[C@@H]1[C@@H](CCCC(=O)N1CCOCC1)CC2(F)F            10
2  C[C@]12CC[C@@H]3c4ccc(B(O)O)cc4CC[C@H]3[C@@H]1[C@@H](CCCC(=O)NCc1ccccc1)CC2=O            76
3  CCN(CC)C(=O)CCC[C@H]1CC(F)(F)[C@@]2(C)CC[C@@H]3c4ccc(B(O)O)cc4CC[C@H]3[C@H]12            29

-- ask Give its inhibition at 0.1 µM value. Item: C[C@]12CC[C@@H]3c4ccc(B(O)O)cc4CC[C@H]3[C@@H]1[C@H](CCC(=O)Nc1ccc3c(c1)OCO3)CC2(F)F
-- reply 55.6

-- ask Give its inhibition at 0.1 µM value. Item: C[C@]12CC[C@@H]3c4ccc(Nc5cccc(S(=O)(=O)N6CCOCC6)c5)cc4CC[C@H]3[C@@H]1[C@@H](CCCC(=O)N1CCOCC1)CC2=O
-- reply 29

-- ask Give its inhibition at 0.1 µM value. Item: C[C@]12CC[C@@H]3c4ccc(B(O)O)cc4CC[C@H]3[C@@H]1[C@@H](CCCC(=O)Nc1ccc3c(c1)OCO3)CC2=O
-- reply 27
